- testedTarget: 5-hydroxytryptamine receptor 1A (Rattus norvegicus)
- methodNotes: In vitro binding affinity of compound towards 5-hydroxytryptamine 1A receptor was determined using [3H]8-OH-DPAT as radioligand; range=20-23

molecule	testedTarget	valueUnit	Ki
CCCN(CCC)C1CC1c1ccccc1Br (stereo unspecified)	5-hydroxytryptamine receptor 1A (Rattus norvegicus)	nM	22

* * *

- testedTarget: 5-hydroxytryptamine receptor 1A (Rattus norvegicus)
- methodNotes: In vitro binding affinity of compound towards 5-hydroxytryptamine 1A receptor was determined using [3H]8-OH-DPAT as radioligand; range=78-140

molecule	valueUnit	Ki
CCCN(CCC)C1CC1c1cc(F)ccc1O (stereo unspecified)	nM	99

* * *

- testedTarget: 5-hydroxytryptamine receptor 1A (Rattus norvegicus, UniProt P19327)
- methodNotes: In vitro binding affinity of compound towards 5-hydroxytryptamine 1A receptor was determined using [3H]8-OH-DPAT as radioligand; range=174-224
pKi: −log10 of the molar value.

compoundStructure	pKi
CCCN(CCC)[C@H]1C[C@@H]1c1cc(F)ccc1OC	6.70

* * *

- testedTarget: 5-hydroxytryptamine receptor 1A (Rattus norvegicus)
- Sequence (P19327 whole entry): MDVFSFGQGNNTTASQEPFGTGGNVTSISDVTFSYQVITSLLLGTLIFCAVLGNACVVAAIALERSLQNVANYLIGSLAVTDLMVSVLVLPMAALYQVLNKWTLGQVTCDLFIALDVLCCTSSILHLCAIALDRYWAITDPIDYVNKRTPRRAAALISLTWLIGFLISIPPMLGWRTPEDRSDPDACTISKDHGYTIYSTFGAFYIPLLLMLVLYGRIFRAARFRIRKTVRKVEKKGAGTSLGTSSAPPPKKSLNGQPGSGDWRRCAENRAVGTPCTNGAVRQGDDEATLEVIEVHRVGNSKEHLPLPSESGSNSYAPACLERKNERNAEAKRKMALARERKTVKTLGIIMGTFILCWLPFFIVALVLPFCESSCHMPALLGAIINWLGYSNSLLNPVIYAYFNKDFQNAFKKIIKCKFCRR
- methodNotes: In vitro binding affinity of compound towards 5-hydroxytryptamine 1A receptor was determined using [3H]8-OH-DPAT as radioligand; range=710-980
pKi: −log10 of the molar value.

compoundStructure	pKi
CCCN(CCC)[C@H]1C[C@@H]1c1cccs1	6.09

* * *

- testedTarget: 5-hydroxytryptamine receptor 1A (Rattus norvegicus, UniProt P19327)
- methodNotes: In vitro binding affinity of compound towards 5-hydroxytryptamine 1A receptor was determined using [3H]8-OH-DPAT as radioligand; range=63-95
measureName: Ki (µM)

compound	testedTarget	valueUnit	measurement
CCCN(CCC)C1CC1c1ccc(F)cc1 (stereo unspecified)	5-hydroxytryptamine receptor 1A (Rattus norvegicus, UniProt P19327)	µM	0.076

* * *

- testedTarget: 5-hydroxytryptamine receptor 1A (Rattus norvegicus)
- methodNotes: In vitro binding affinity of compound towards 5-hydroxytryptamine 1A receptor was determined using [3H]8-OH-DPAT as radioligand; range=16-20

compoundStructure	valueUnit	Ki
CCCN(CCC)[C@@H]1C[C@H]1c1ccccc1OC	nM	17

* * *

- testedTarget: 5-hydroxytryptamine receptor 1A (Rattus norvegicus, UniProt P19327)
- methodNotes: In vitro binding affinity of compound towards 5-hydroxytryptamine 1A receptor was determined using [3H]8-OH-DPAT as radioligand; range=184-503
measureName: Ki (nM)

compoundStructure	measureName	measurement
CCCN(CCC)[C@H]1C[C@@H]1c1cc(F)ccc1O	Ki	348

* * *

The following compounds are listed with their measured Ki values.
- testedTarget: 5-hydroxytryptamine receptor 1A (Rattus norvegicus, UniProt P19327)
- Sequence (P19327 whole entry): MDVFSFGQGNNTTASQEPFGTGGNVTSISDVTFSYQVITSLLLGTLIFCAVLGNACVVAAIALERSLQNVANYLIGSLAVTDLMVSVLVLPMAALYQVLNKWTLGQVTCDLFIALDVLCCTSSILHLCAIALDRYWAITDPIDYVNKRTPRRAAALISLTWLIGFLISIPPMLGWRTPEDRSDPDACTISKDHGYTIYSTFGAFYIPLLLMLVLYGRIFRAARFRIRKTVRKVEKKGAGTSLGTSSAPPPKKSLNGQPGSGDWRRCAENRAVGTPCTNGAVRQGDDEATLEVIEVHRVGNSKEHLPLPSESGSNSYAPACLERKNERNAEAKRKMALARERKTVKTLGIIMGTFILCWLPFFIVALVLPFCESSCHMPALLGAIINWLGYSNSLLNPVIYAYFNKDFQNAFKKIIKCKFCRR
- methodNotes: In vitro binding affinity of compound towards 5-hydroxytryptamine 1A receptor was determined using [3H]8-OH-DPAT as radioligand; range=12-14

compound	Ki / nM
CCCN(CCC)[C@@H]1C[C@H]1c1cccs1	11
CCCN(CCC)C1CC1c1cccs1 (configuration not stated)	13

* * *

- testedTarget: UniProt P19327
- Sequence (P19327 whole entry): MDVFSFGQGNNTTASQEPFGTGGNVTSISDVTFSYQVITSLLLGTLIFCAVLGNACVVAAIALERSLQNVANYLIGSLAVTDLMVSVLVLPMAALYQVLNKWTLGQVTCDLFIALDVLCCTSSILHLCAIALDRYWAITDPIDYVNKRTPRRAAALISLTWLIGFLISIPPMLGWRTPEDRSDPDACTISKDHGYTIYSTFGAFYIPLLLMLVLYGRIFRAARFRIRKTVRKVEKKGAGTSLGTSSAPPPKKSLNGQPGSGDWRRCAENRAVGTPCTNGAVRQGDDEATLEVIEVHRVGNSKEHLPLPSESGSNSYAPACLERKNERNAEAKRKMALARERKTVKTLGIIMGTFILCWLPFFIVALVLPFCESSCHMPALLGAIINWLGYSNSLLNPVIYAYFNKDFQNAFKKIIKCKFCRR
- methodNotes: In vitro binding affinity of compound towards 5-hydroxytryptamine 1A receptor was determined using [3H]8-OH-DPAT as radioligand; range=85-130
pKi: −log10 of the molar value.

compound	pKi
CCCN(CCC)C1CC1c1cccc(F)c1 (stereo unspecified)	7.00

* * *

- testedTarget: 5-hydroxytryptamine receptor 1A (Rattus norvegicus, UniProt P19327)
- Sequence (P19327 whole entry): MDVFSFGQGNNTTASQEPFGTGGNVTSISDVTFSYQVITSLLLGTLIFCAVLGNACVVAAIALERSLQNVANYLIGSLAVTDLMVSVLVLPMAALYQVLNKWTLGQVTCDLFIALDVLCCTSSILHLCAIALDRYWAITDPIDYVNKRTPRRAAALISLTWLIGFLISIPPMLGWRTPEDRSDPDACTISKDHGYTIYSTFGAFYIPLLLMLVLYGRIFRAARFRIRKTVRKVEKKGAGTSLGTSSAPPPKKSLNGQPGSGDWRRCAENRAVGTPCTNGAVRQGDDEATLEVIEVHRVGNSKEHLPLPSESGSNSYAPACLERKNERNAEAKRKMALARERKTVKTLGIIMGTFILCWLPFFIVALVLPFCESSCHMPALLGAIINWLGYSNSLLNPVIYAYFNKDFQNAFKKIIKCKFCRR
- methodNotes: In vitro binding affinity of compound towards 5-hydroxytryptamine 1A receptor was determined using [3H]-8-OH-DPAT as radioligand; range=39-87
measureName: Ki (nM)

compoundStructure	measureName	measurement
CCCN(CCC)[C@@H]1C[C@H]1c1cc(F)ccc1OC	Ki	60

* * *

- testedTarget: 5-hydroxytryptamine receptor 1A (Rattus norvegicus)
- methodNotes: In vitro binding affinity of compound towards 5-hydroxytryptamine 1A receptor was determined using [3H]8-OH-DPAT as radioligand; range=19-23
measureName: Ki

molecule	measurement
CCCN(CCC)C1CC1c1ccsc1 (stereo unspecified)	21 nM

* * *

- testedTarget: 5-hydroxytryptamine receptor 1A (Rattus norvegicus)
- methodNotes: In vitro binding affinity of compound towards 5-hydroxytryptamine 1A receptor was determined using [3H]-8-OH-DPAT as radioligand; range=21-28
pKi: −log10 of the molar value.
measureName: pKi

molecule	measurement
CCCN(CCC)C1CC1c1ccccc1 (stereo unspecified)	7.62

* * *

- testedTarget: 5-hydroxytryptamine receptor 1A (Rattus norvegicus)
- Sequence (P19327 whole entry): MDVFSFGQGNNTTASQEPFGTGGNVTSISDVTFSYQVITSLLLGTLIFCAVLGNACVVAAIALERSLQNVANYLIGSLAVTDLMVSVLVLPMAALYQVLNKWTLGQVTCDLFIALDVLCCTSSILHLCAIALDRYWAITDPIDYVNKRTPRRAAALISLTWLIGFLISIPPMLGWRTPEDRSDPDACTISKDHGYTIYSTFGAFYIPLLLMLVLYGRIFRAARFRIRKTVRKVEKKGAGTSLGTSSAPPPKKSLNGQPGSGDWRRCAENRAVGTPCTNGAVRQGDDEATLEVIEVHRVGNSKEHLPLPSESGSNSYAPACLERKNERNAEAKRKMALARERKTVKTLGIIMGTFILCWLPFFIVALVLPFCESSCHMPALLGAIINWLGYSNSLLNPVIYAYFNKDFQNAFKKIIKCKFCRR
- methodNotes: In vitro binding affinity of compound towards 5-hydroxytryptamine 1A receptor was determined using [3H]8-OH-DPAT as radioligand
pKi: −log10 of the molar value.

compound	pKi
CCCN(CCC)C1CC1c1cc2ccccc2s1 (stereo not drawn)	< 6.00
CCCN(CCC)C1CC1c1ccccc1C(F)(F)F (stereo not drawn)	< 6.00
CCCN(CCC)C1CC1c1cccc(Cl)c1Cl (stereo not drawn)	< 6.52
